Assay: Chromatographic hydrophobicity index, log D of the compound at pH 7.4 by reverse-phase HPLC analysis
Format: physicochemical
Settings: buffer

molecular_string | CHI
Cc1ccc2nc(C)c(-c3cc4nc(N5CCCC5)cc(N[C@H]5CC[C@](C)(O)CC5)n4n3)nc2c1.Cl | 3.29
Cc1nc2ccc(F)cc2nc1-c1cc2nc(N3CCCC3)cc(N[C@H]3CC[C@](C)(O)CC3)n2n1.Cl | 3.23
Cc1nc2ccc(F)cc2nc1-c1cc2nc(N3CCCC3)cc(NCC(C)(C)O)n2n1.Cl | 3.07
Cc1ccc2nc(C)c(-c3cc4nc(N5CCCC5)cc(NC5CCOCC5)n4n3)nc2c1.Cl | 3.4
Cc1nc2ccc(F)cc2nc1-c1cc2nc(N3CC[C@@H](F)C3)cc(NCC(C)(C)O)n2n1.Cl | 2.79
CO[C@H]1CC[C@H](Nc2cc(N3CCCC3)nc3cc(-c4nc5cc(C)ccc5nc4C)nn23)CC1.Cl | 4.1

----------
Test: Intrinsic clearance in human liver microsomes
Format: ADME, Microsome
Conditions: read-out: CLH
recorded_endpoint: microsomal CLint (µL/min/mg)

molecular_string | recorded_measurement
Cc1nc2ccccc2nc1-c1cc2nc(N3CC[C@@H](F)C3)cc(N(C)C3CCOCC3)n2n1.Cl | 127

----------
Test: Solubility in artificial interstitial fluid at pH 5 by HPLC analysis
Type: physicochemical
Label rule met when solubility is at or above 20 µg/mL; anything below gets rule not met.

molecular_string | class_label
Cc1nc2ccccc2nc1-c1cc2nc(N3CCCC3)cc(NC3CCOCC3)n2n1 | rule not met
Cc1nc2cccc(C)c2nc1-c1cc2nc(N3CCCC3)cc(NC3CCOCC3)n2n1.Cl | rule met
Cc1nc2ccccc2nc1-c1cc2nc(N3CC[C@@H](F)C3)cc(N(C)C3CCOCC3)n2n1.Cl | rule not met
Cc1nc2ccc(F)cc2nc1-c1cc2nc(N3CC[C@@H](F)C3)cc(NCC(C)(C)O)n2n1.Cl | rule met
Cc1ccc2nc(-c3cc4nc(N5CCCC5)cc(NC5CCOCC5)n4n3)c(C)nc2c1.Cl | rule not met

----------
Assay: Half life in Wistar rat at 0.3 mg/kg, iv
Assay type: ADME, organism-based
Conditions: in vivo
Listing: half-life of selected compounds

molecular_string | half-life / h
Cc1nc2ccccc2nc1-c1cc2nc(N3CC[C@@H](F)C3)cc(N(C)C3CCOCC3)n2n1.Cl | 3.2
Cc1nc2ccc(F)cc2nc1-c1cc2nc(N3CC[C@@H](F)C3)cc(NCC(C)(C)O)n2n1.Cl | 3.09

----------
Target: hERG (KCNH2) (Homo sapiens, UniProt Q12809)
Sequence (Q12809 whole entry): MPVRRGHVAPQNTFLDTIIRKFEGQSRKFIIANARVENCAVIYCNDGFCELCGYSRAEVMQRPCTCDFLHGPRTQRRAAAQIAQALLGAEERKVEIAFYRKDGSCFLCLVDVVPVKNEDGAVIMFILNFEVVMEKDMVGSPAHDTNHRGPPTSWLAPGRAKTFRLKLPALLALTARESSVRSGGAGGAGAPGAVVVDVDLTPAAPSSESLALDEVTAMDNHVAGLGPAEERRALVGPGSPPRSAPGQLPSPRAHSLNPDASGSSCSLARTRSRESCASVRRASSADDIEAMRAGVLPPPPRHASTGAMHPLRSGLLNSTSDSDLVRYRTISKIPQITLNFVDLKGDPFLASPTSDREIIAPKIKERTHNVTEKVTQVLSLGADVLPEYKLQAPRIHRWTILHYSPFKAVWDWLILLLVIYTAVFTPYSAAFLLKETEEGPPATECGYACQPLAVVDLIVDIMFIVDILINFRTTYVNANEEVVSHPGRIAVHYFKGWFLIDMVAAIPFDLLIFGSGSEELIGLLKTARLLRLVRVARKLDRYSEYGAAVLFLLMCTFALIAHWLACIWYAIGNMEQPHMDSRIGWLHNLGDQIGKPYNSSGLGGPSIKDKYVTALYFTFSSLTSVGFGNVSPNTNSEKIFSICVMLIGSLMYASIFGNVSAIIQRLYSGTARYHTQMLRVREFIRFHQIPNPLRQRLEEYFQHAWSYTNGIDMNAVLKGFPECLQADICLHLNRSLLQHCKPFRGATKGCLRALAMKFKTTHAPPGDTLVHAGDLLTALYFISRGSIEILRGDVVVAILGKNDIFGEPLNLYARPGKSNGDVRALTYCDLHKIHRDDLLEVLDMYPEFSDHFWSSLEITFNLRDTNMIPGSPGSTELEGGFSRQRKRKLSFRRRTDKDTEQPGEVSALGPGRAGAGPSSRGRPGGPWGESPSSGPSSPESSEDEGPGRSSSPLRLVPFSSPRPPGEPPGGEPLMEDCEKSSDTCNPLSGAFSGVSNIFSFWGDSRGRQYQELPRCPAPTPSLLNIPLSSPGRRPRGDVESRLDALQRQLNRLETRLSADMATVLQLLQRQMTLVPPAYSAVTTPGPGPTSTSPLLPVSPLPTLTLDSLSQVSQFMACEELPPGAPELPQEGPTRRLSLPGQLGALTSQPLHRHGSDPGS
Assay: Inhibition of human ERG at 1 uM relative to control
Label yes (1) when inhibition at 1 µM is at or above 60%; anything below gets no (0).

molecular_string | class_label
Cc1ccc2nc(C)c(-c3cc4nc(N5CCCC5)cc(NC5CCOCC5)n4n3)nc2c1.Cl | yes (1)
Cc1nc2ccccc2nc1-c1cc2nc(N3CCCC3)cc(NC3CCOCC3)n2n1 | yes (1)
Cc1ccc2nc(C)c(-c3cc4nc(N5CCCC5)cc(N[C@H]5CC[C@](C)(O)CC5)n4n3)nc2c1.Cl | no (0)
Cc1nc2ccc(F)cc2nc1-c1cc2nc(N3CC[C@@H](F)C3)cc(NCC(C)(C)O)n2n1.Cl | no (0)
Cc1ccc2nc(-c3cc4nc(N5CCCC5)cc(NC5CCOCC5)n4n3)c(C)nc2c1.Cl | yes (1)
CO[C@H]1CC[C@H](Nc2cc(N3CCCC3)nc3cc(-c4nc5cc(C)ccc5nc4C)nn23)CC1.Cl | no (0)
Cc1nc2ccc(F)cc2nc1-c1cc2nc(N3CCCC3)cc(N[C@H]3CC[C@](C)(O)CC3)n2n1.Cl | no (0)
Cc1nc2cccc(C)c2nc1-c1cc2nc(N3CCCC3)cc(NC3CCOCC3)n2n1.Cl | yes (1)
Cc1nc2ccc(F)cc2nc1-c1cc2nc(N3CCCC3)cc(NCC(C)(C)O)n2n1.Cl | no (0)
Cc1nc2c(C)cccc2nc1-c1cc2nc(N3CCCC3)cc(NC3CCOCC3)n2n1.Cl | yes (1)

----------
Listing: solubility of selected molecules
Assay: Solubility in artificial interstitial fluid at pH 5 by HPLC analysis
Assay type: physicochemical
recorded_endpoint: solubility (µg/mL)

molecular_string | relation_qualifier | recorded_measurement
Cc1ccc2nc(C)c(-c3cc4nc(N5CCCC5)cc(N[C@H]5CC[C@H](O)CC5)n4n3)nc2c1.Cl | = | 19
Cc1ccc2nc(C)c(-c3cc4nc(N5CCCC5)cc(NC5CCOCC5)n4n3)nc2c1.Cl | > | 1000
Cc1ccc2nc(C)c(-c3cc4nc(N5CCCC5)cc(N[C@H]5CC[C@](C)(O)CC5)n4n3)nc2c1.Cl | = | 62
Cc1nc2ccc(F)cc2nc1-c1cc2nc(N3CCCC3)cc(N[C@H]3CC[C@](C)(O)CC3)n2n1.Cl | = | 15
Cc1nc2ccc(F)cc2nc1-c1cc2nc(N3CCCC3)cc(NCC(C)(C)O)n2n1.Cl | = | 8.7
CO[C@H]1CC[C@H](Nc2cc(N3CCCC3)nc3cc(-c4nc5cc(C)ccc5nc4C)nn23)CC1.Cl | = | 5.1
Cc1nc2c(C)cccc2nc1-c1cc2nc(N3CCCC3)cc(NC3CCOCC3)n2n1.Cl | = | 32

----------
Biological target: cAMP and cAMP-inhibited cGMP 3',5'-cyclic phosphodiesterase 10A (Homo sapiens, UniProt Q9Y233)
Sequence (Q9Y233 whole entry, the tested form may be a part): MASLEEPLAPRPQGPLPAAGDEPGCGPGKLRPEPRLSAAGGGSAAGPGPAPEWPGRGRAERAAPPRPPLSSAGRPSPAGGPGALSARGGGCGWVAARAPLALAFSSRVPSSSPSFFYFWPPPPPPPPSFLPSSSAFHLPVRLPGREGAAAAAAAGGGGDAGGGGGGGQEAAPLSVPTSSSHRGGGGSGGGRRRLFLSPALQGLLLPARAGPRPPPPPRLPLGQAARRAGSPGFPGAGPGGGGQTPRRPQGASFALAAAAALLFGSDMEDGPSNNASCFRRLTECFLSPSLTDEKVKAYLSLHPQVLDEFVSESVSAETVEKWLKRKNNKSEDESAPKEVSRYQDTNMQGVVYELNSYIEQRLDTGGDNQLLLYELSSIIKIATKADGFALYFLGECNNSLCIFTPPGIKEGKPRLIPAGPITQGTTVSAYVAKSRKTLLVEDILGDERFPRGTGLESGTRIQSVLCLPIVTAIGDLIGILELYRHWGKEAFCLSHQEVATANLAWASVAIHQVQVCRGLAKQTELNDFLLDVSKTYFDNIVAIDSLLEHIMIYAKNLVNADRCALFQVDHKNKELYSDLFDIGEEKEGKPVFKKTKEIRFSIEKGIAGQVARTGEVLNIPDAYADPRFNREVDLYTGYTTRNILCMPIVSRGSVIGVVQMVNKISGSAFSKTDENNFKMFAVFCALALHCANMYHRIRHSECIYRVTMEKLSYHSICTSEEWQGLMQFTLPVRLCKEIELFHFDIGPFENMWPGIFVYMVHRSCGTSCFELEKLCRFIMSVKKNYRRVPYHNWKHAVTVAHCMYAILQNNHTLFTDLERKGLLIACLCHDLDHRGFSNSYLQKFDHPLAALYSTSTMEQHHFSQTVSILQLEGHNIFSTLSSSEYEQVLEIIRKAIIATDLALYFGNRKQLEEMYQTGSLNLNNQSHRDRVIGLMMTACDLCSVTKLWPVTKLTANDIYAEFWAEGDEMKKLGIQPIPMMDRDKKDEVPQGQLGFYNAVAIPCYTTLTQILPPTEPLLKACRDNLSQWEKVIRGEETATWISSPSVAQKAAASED
Assay: Inhibition of human N-terminal FLAG-tagged PDE10A (1 to 90 residues) expressed in using African green monkey COS7 cells using [3H]cAMP or [3H]cGMP as substrate preincubated for 5 mins followed by substrate addition and measured after 30 mins by liquid scintillation counting method
pIC50: −log10 of the molar value.

molecular_string | pIC50
Cc1nc2ccccc2nc1-c1cc2nc(N3CC[C@@H](F)C3)cc(N(C)C3CCOCC3)n2n1.Cl | 10.21
Cc1nc2ccc(F)cc2nc1-c1cc2nc(N3CC[C@@H](F)C3)cc(NCC(C)(C)O)n2n1.Cl | 10.21
